// data source = PubChem BioAssay AID1996

# experimental_parameters: buffer; pH 7.4; 200.0 µM
assay_readout: solubility kinetic (µg/mL)
Express the result in µg/mL but write the number alone.

Here is how some molecules turned out for solubility kinetic.
INSERT INTO results (molecule, reading_unit, data_value) VALUES
  ('Fc1ccccc1-c1csc(-c2cccnc2)n1', 'µg/mL', 0.4),
  ('CNC(=O)c1ccccc1Nc1ccc(SC(F)F)cc1', 'µg/mL', 28.6),
  ('O=C(Nc1nccs1)c1ccc2c(c1)OCO2', 'µg/mL', 3);

Input CCOc1cccc2cc(C(=O)NCc3ccc(F)cc3)c(=N)oc12 . Output solubility kinetic: 0.7

Lab book: solubility kinetic of CCOc1ccc(N(CC(=O)Nc2cccc(C)c2)S(C)(=O)=O)cc1 noted as 35.6

The reported solubility kinetic of the molecule COc1cc(/C=C/C(=O)OCC(=O)Nc2ccc3c(c2)OCO3)ccc1O was 15.5

Briefly, solubility kinetic measured for Cc1c(Cl)cccc1NC(=O)CCCN1C(=O)c2cccnc2C1=O : 39.5

For CCCCNc1nc2c(c(=O)n(Cc3ccccc3)c(=O)n2C)n1C the molecule record lists solubility kinetic as 4.1

Short answer for CC(=O)c1ccc(N2CCN(C(=O)c3ccc(S(=O)(=O)NCc4ccco4)cc3)CC2)cc1 : solubility kinetic was 4.9
